# assayExplanation: plasma stability in mouse plasma
# Assay type: in vitro ADME
# details: mouse plasma; solubilized in 2-Hydroxypropyl)-beta-cyclodextrin or captisol, depending on the solvent
quantity: half-life at 200 μM

Q: Give its half-life at 200 μM value. Item: CCC(NC(=O)[C@H](CC(C)C)NC(=O)CCc1ccccc1)C(=O)C(=O)NCc1cc(F)cc(OC)c1 (stereo partly shown)
A: 9 to 15 h
